Items are presented alongside their recorded pIC50.
biological target: hSK2 (Homo sapiens); assay: 86Rb+ efflux assay for compound activity towards hSK channels; format: cell-based; details: 86Rb+ efflux stimulated with calcium ionophore; drug 0.01 to 30 μM in EBSS; read-out: hSK2 Inhibitory Activity
pIC50: −log10 of the molar value.

# example entries with known answers
Smiles	Reported
c1ccc(-c2csc(Nc3nc4ccccc4[nH]3)n2)nc1	6.00 to 7.00
CC(C)c1ccc(Nc2nc(-c3nccs3)cs2)nc1	4.52 to 6.00
Cc1cc(C)nc(Nc2nc(-c3ccccn3)cs2)c1	4.52 to 6.00

Sample "COc1sc(Nc2ccccn2)nc1-c1ccccn1" ; pIC50 observed: 4.52 to 6.00

Sample "CN1CCN(c2ccc(Nc3nc(-c4nccs4)cs3)nc2)CC1" ; pIC50 observed: 4.52 to 6.00
